Items are presented alongside their recorded IC50.
Test system: HeLa
protocol text: Cytotoxicity against human HeLa cells after 24 hrs by MTT assay
Format: functional, cell-based
observed property: IC50 (µM)

[[record]]
smiles_code = "C#CCn1nc(-n2cc(COc3cc(C(F)(F)F)nc(N)n3)nn2)c2ccc(C(F)(F)F)nc21"
display_unit = "µM"
operator_symbol = ">"
observed_measurement = 100

[[record]]
smiles_code = "Nc1nc(OCc2cn(-c3nn(CCC(F)(F)C(F)(F)C(F)(F)C(F)(F)C(F)(F)C(F)(F)C(F)(F)C(F)(F)F)c4nc(C(F)(F)F)ccc34)nn2)cc(C(F)(F)F)n1"
display_unit = "µM"
operator_symbol = ">"
observed_measurement = 100

[[record]]
smiles_code = "CCCCCCCCCCn1nc(-n2cc(COc3cc(C(F)(F)F)nc(N)n3)nn2)c2ccc(C(F)(F)F)nc21"
display_unit = "µM"
operator_symbol = "="
observed_measurement = 34.3

[[record]]
smiles_code = "CCOC(=O)Cn1nc(-n2cc(COc3cc(C(F)(F)F)nc(N)n3)nn2)c2ccc(C(F)(F)F)nc21"
display_unit = "µM"
operator_symbol = "="
observed_measurement = 9.8

[[record]]
smiles_code = "O=c1[nH]cc(F)c(=O)[nH]1"
display_unit = "µM"
operator_symbol = "="
observed_measurement = 1.3

